assayTarget: T1, extracellular domain of epidermal growth factor receptor (EGFR), residues 1–618 (Homo sapiens (; human EGFR in …, UniProt P00533)
T1 construct: Epidermal growth factor receptor (EGFR), extracellular domain, residues 1-618; also called extracellular domain of EGFR; source: Sf9 expression system (baculovirus), purified from the culture supernatant (Ni-NTA, SEC)
testSummary: SPR; Biacore 8K; EGFR extracellular domain immobilised on CM5 chip by amine coupling (~1000 RU); VHHs injected in two-fold serial dilutions at 30 μl/min; 25°C; PBS with 0.005% Tween20
conditionDetails: both partners purified
pKd: −log10 of the molar value.
Please note: True applies when pKd is 7 or greater, and False applies otherwise.

Example results:
[
  {
    "binder": "7D12‐Vob F106A (VHH, PDB 7XL1) with the stated change; IMGT numbering; source: E. coli BL21(DE3), periplasmic fraction, purified (Ni-NTA, SEC)) VHH: EVQLVESGGGLVQPGGSLRLSCAASGRTSRSYGMGWYRQAPGKGRELVAGISWRGDSTGYADSVKGRFTISRDNAKNTLYLQMNSLRPEDTAVYYCAAAAGSAWYGTLYEYDYWGQGTLVTVSS",
    "assignedCategory": "False"
  },
  {
    "binder": "7D12‐Vob Y42F (VHH, PDB 7XL1) with the stated change; IMGT numbering; source: E. coli BL21(DE3), periplasmic fraction, purified (Ni-NTA, SEC)) VHH: EVQLVESGGGLVQPGGSLRLSCAASGRTSRSYGMGWFRQAPGKGRELVAGISWRGDSTGYADSVKGRFTISRDNAKNTLYLQMNSLRPEDTAVYYCAFAAGSAWYGTLYEYDYWGQGTLVTVSS",
    "assignedCategory": "False"
  }
]

Q: Does the binder 7D12‐Vob Y42F‐L52F‐F106A (VHH, PDB 7XL1) with the stated changes; IMGT numbering; also called triple mutant; source: E. coli BL21(DE3), periplasmic fraction, purified (Ni-NTA, SEC)) VHH: EVQLVESGGGLVQPGGSLRLSCAASGRTSRSYGMGWFRQAPGKGREFVAGISWRGDSTGYADSVKGRFTISRDNAKNTLYLQMNSLRPEDTAVYYCAAAAGSAWYGTLYEYDYWGQGTLVTVSS have recorded pKd that is 7 or more?
Result: True

Q: Does the binder 7D12‐Vob L52F (VHH, PDB 7XL1) with the stated change; IMGT numbering; source: E. coli BL21(DE3), periplasmic fraction, purified (Ni-NTA, SEC)) VHH: EVQLVESGGGLVQPGGSLRLSCAASGRTSRSYGMGWYRQAPGKGREFVAGISWRGDSTGYADSVKGRFTISRDNAKNTLYLQMNSLRPEDTAVYYCAFAAGSAWYGTLYEYDYWGQGTLVTVSS have recorded pKd that is 7 or more?
Result: False
